- Target desc: EP4 receptor (Homo sapiens, UniProt P35408)
- Sequence (P35408 whole entry): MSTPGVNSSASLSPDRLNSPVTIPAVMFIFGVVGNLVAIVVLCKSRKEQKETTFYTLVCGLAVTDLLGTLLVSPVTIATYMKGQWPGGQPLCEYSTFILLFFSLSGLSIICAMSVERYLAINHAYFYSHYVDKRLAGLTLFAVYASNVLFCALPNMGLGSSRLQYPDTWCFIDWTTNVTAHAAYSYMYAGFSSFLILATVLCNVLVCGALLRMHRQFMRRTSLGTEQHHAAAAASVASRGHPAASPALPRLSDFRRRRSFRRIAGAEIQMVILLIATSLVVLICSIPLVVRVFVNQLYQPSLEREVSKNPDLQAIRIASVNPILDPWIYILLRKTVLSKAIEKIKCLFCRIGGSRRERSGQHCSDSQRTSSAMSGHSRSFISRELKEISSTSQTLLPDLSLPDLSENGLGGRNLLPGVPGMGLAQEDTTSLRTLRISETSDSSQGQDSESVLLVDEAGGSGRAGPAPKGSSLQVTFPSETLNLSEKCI
- Protocol summary: Antagonist activity against EP4 receptor by cAMP assay
- Condition: Flpin-CHO-EP4 cells, PGE2 stimulation, cAMP readout; starting concentration 5 μM, dilution factor 4
Recorded endpoint: IC50 (nM)

Compound	Recorded endpoint	Numeric readout
C[C@H](NC(=O)c1c(C(F)F)nn(C)c1Oc1cccc(S(F)(F)(F)(F)F)c1)c1ccc(C(=O)O)cc1 [Example 1]	IC50	6.59
